tested on: M. tuberculosis H37Rv; assay: MIC determination (extracellular, resazurin); type: cell-based, Mycobacterium tuberculosis; conditions: Mycobacterium tuberculosis, H37RV, extracellular; with 4 μg/ml potassium clavulanate; average; read-out: MIC μM (average with clav)
Mark met for MIC under 7 µM, not met if at or over.

Before answering, review these 3 worked examples.
C[C@@H](O)[C@H]1C(=O)N2C(C(=O)O)=C([C@H]3CCCO3)S[C@H]12 = not met
C[C@@H](O)[C@H]1C(=O)N2C(C(=O)O)=C(S[C@@H]3CN[C@H](C(=O)Nc4cccc(C(=O)O)c4)C3)[C@H](C)[C@H]12 = not met
CO[C@H]1CCC[C@H]2C1=C(C(=O)OC(C)OC(=O)OC1CCCCC1)N1C(=O)[C@H]([C@@H](C)O)[C@@H]21 (mixture of isomers) = not met

As a next step, examine the compound that follows.
Request: Is it true that MIC reported for C[C@@H](O)[C@H]1C(=O)N2C(C(=O)O)=C(SC3CN(C4=NCCS4)C3)[C@H](C)[C@H]12 is less than 7 µM?
Response: met
